- target-system: T1, MICB-Fc (R&D Systems) (human, UniProt Q29980 23-298)
- T1 construct: not shown: Fc of the bought reagent
- T1 sequence (looked up): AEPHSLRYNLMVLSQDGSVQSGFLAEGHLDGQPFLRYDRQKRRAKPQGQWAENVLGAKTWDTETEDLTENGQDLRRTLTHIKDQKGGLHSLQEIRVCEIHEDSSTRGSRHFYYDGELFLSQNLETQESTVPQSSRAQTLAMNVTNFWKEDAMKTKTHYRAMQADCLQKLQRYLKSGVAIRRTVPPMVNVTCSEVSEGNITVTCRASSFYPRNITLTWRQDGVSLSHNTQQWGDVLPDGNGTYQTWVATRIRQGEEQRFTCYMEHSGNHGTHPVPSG
- experimental-protocol: ELISA, ligand-Fc coated, biotinylated NKG2D titrated
recorded-metric: binding result

binder | measured-result
Y199A mutant NKG2D ectodomain (His-avitag, biotinylated) (receptor, not shown: N-terminal His-avitag) EPHHHHHHGLNDIFEAQKIEWHENSLFNQEVQIPLTESYCGPCPKNWICYKNNCYQFFDESKNWYESQASCMSQNASLLKVYSKEDQDLLKLVKSYHWMGLVHIPTNGSWQWEDGSILSPNLLTIIEMQKGDCALYASSFKGAIENCSTPNTYICMQRTV | no binding
His-avitag natural NKG2D ectodomain, biotinylated (receptor, also called natural form of the ectodomain of NKG2D) EPHHHHHHGLNDIFEAQKIEWHENSLFNQEVQIPLTESYCGPCPKNWICYKNNCYQFFDESKNWYESQASCMSQNASLLKVYSKEDQDLLKLVKSYHWMGLVHIPTNGSWQWEDGSILSPNLLTIIEMQKGDCALYASSFKGYIENCSTPNTYICMQRTV | binds
double Y152A plus Y199A mutant NKG2D ectodomain (His-avitag, biotinylated) (receptor, not shown: N-terminal His-avitag) EPHHHHHHGLNDIFEAQKIEWHENSLFNQEVQIPLTESYCGPCPKNWICYKNNCYQFFDESKNWYESQASCMSQNASLLKVYSKEDQDLLKLVKSAHWMGLVHIPTNGSWQWEDGSILSPNLLTIIEMQKGDCALYASSFKGAIENCSTPNTYICMQRTV | no binding
Y152A mutant NKG2D ectodomain (His-avitag, biotinylated) (receptor, also called Y152A non-natural NKG2D receptor; not shown: N-terminal His-avitag) EPHHHHHHGLNDIFEAQKIEWHENSLFNQEVQIPLTESYCGPCPKNWICYKNNCYQFFDESKNWYESQASCMSQNASLLKVYSKEDQDLLKLVKSAHWMGLVHIPTNGSWQWEDGSILSPNLLTIIEMQKGDCALYASSFKGYIENCSTPNTYICMQRTV | no binding
